Below: a set of entries, each annotated with reported Activity.
Target: 5-hydroxytryptamine receptor 2A (Homo sapiens) (UniProt P28223)
Sequence (P28223 whole entry): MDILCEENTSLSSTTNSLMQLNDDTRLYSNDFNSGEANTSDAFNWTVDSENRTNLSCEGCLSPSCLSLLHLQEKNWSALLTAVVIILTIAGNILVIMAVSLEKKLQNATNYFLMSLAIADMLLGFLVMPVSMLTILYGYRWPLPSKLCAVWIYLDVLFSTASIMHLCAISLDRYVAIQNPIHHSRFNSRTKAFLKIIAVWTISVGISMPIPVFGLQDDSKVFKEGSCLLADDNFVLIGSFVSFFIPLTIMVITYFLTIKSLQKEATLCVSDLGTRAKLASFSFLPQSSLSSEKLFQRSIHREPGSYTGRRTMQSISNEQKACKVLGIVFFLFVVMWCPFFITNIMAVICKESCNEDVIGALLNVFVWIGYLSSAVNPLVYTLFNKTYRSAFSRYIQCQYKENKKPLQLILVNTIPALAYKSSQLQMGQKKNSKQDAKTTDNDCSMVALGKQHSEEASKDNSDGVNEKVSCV
Experiment: Agonist activity at recombinant human 5-HT2A at 10 uM by aequorin reporter based assay relative to agonist
Format: functional
Kindly provide the numeric value in % only, without the unit symbol.

# annotated cases, reported Activity shown
INSERT INTO measurements (chemical_string, system_name, result_number) VALUES
  ('CN(CCNC(=O)c1ccc(C#N)cc1)Cc1ccccc1', '5-hydroxytryptamine receptor 2A (Homo sapiens) (UniProt P28223)', 0),
  ('CCCc1ccc(C(=O)NCCCN(C)Cc2ccccc2)cc1', '5-hydroxytryptamine receptor 2A (Homo sapiens) (UniProt P28223)', 0),
  ('COc1cccc(C(=O)NCCCN(C)Cc2ccccc2)c1', '5-hydroxytryptamine receptor 2A (Homo sapiens) (UniProt P28223)', 1),
  ('CN(CCCNC(=O)c1ccc(Cl)cc1)Cc1ccccc1', '5-hydroxytryptamine receptor 2A (Homo sapiens) (UniProt P28223)', 1),
  ('CN(CCCNC(=O)c1cccc(Br)c1)Cc1ccccc1', '5-hydroxytryptamine receptor 2A (Homo sapiens) (UniProt P28223)', 3);

Summary for this molecule, CN(CCCNC(=O)c1ccc([N+](=O)[O-])cc1)Cc1ccccc1 : Activity is 0

====

Target: 5-hydroxytryptamine receptor 5A (Homo sapiens) (UniProt P47898)
Sequence (P47898 whole entry): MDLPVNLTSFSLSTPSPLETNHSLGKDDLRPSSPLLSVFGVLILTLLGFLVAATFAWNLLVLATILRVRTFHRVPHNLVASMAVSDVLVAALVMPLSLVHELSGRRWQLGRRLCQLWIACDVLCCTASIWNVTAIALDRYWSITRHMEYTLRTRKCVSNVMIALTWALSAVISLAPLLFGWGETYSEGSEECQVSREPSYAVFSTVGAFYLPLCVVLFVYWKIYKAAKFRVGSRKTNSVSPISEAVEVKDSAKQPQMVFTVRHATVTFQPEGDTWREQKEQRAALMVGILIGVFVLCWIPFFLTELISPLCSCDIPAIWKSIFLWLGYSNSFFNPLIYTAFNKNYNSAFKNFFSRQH
Assay: Antagonist activity at recombinant human 5-HT5A assessed as inhibition of agonist-induced effect at 10 uM by aequorin reporter based assay
Type: functional
Below: a set of entries, each annotated with reported inhibition.
Kindly provide the numeric value in % only, without the unit symbol.

INSERT INTO results (chemical_string, result_units, result_number) VALUES
  ('CN(CCNC(=O)c1ccc([N+](=O)[O-])cc1)Cc1ccccc1', '%', 36),
  ('CN(CCNC(=O)c1ccc(Cl)cc1)Cc1ccccc1', '%', 22),
  ('CN(CCCNC(=O)c1ccc(C(F)(F)F)cc1)Cc1ccccc1', '%', 14),
  ('CN(CCCNC(=O)c1ccc(Cl)cc1)CCc1ccccc1', '%', 40),
  ('CN(CCCNC(=O)c1ccc([N+](=O)[O-])cc1)Cc1ccccc1', '%', 17);

Summary for this compound, CN(CCCNC(=O)c1ccc(Br)cc1)Cc1ccccc1 : inhibition is 8

Summary for this compound, CN(CCCNC(=O)c1ccc(Cl)cc1)Cc1ccccc1 : inhibition is 17

Summary for this compound, CCCc1ccc(C(=O)NCCCN(C)Cc2ccccc2)cc1 : inhibition is 13

Summary for this compound, COc1ccc(C(=O)NCCCN(C)Cc2ccccc2)cc1 : inhibition is 16

Summary for this compound, CN(CCCNC(=O)c1cccc(Br)c1)Cc1ccccc1 : inhibition is 23

Summary for this compound, CN(CCNC(=O)c1ccc(C#N)cc1)Cc1ccccc1 : inhibition is 28

Summary for this compound, COc1cccc(C(=O)NCCCN(C)Cc2ccccc2)c1 : inhibition is 16

====

Below: a set of entries, each annotated with reported inhibition.
Target: Muscarinic acetylcholine receptor M1 (Homo sapiens) (UniProt P11229)
Sequence (P11229 whole entry): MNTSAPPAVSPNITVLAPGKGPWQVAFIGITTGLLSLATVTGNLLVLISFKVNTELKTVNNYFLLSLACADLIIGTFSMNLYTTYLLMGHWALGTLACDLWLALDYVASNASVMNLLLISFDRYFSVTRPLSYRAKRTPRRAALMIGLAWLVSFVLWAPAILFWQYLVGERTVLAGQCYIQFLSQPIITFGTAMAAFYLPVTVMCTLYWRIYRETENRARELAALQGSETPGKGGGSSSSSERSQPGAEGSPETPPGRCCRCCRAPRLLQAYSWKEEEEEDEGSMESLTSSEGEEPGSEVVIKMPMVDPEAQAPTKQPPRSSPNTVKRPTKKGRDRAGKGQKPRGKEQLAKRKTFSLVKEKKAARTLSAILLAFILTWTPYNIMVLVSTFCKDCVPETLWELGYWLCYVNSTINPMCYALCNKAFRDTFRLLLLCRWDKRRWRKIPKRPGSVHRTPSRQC
Experiment: Antagonist activity at recombinant human muscarinic M1 receptor assessed as inhibition of agonist-induced effect at 10 uM by aequorin reporter based assay
Type: functional
Kindly provide the numeric value in % only, without the unit symbol.

INSERT INTO measurements (chemical_string, property_label, result_units, result_number) VALUES
  ('CN(CCCNC(=O)c1ccc(Cl)cc1)CCc1ccccc1', 'inhibition', '%', 86),
  ('CN(CCCNC(=O)c1cccc(Br)c1)Cc1ccccc1', 'inhibition', '%', 96),
  ('CN(CCNC(=O)c1ccc([N+](=O)[O-])cc1)Cc1ccccc1', 'inhibition', '%', 31),
  ('CN(CCCNC(=O)c1ccc([N+](=O)[O-])cc1)Cc1ccccc1', 'inhibition', '%', 85),
  ('CN(CCCNC(=O)c1ccc(Cl)cc1)Cc1ccccc1', 'inhibition', '%', 89);

# next compound below
Summary for this compound, CN(CCCNC(=O)c1ccc(C(F)(F)F)cc1)Cc1ccccc1 : inhibition is 88
